Provenance of the data: patent US20110039847A1

targetSystem: SIRT1 (Homo sapiens, UniProt Q96EB6)
Sequence (Q96EB6 whole entry): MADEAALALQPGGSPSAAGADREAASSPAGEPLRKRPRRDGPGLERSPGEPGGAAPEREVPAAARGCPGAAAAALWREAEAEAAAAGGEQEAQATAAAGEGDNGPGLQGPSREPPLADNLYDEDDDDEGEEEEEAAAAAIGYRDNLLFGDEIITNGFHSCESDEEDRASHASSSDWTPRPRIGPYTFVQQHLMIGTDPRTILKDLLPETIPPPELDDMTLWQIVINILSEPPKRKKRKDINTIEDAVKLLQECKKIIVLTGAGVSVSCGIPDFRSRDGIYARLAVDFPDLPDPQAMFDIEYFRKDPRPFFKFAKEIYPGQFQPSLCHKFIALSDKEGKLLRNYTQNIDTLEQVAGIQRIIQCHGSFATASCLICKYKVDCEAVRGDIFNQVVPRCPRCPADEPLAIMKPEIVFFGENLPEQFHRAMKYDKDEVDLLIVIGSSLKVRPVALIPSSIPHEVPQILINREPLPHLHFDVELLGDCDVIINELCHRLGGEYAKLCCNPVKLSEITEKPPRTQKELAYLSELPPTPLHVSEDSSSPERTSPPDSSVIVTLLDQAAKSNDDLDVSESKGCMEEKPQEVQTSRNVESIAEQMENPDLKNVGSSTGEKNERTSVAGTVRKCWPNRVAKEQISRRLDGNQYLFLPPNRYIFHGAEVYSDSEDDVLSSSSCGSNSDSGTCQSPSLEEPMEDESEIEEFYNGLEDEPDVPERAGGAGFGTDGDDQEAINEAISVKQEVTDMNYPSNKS
testName: Mass spectrometry based SIRT1 deacetylation (activation) assay
Type: biochemical
testContext: 25 min, 0.5 μM peptide substrate, 120 μM βNAD+, 10 nM SIRT1, 25 min at 25° C., read-out: % Fold Act. (percent maximum fold activation)
Below: a set of entries, each annotated with reported Emax.

In the examples that follow, each entry is paired with its recorded Emax.
1. CN1CCN(c2cc(C(=O)Nc3ccccc3-c3nnc(C(=O)N4CCOCC4)s3)nc(-c3ccccc3)n2)CC1=O :: ≥ 300%
2. CN(C)CCNc1cc(C(=O)Nc2ccccc2-c2ccco2)nc(-c2ccccc2)n1 :: ≥ 300%

Please examine the following record next.
Value of Emax reported for the molecule "CCc1ccccc1NC(=O)c1cc(NCCN(C)C)nc(-c2ccccc2)n1" is 150 to 300%
